# Assay target: UniProt:P22303
# Sequence (P22303 whole entry): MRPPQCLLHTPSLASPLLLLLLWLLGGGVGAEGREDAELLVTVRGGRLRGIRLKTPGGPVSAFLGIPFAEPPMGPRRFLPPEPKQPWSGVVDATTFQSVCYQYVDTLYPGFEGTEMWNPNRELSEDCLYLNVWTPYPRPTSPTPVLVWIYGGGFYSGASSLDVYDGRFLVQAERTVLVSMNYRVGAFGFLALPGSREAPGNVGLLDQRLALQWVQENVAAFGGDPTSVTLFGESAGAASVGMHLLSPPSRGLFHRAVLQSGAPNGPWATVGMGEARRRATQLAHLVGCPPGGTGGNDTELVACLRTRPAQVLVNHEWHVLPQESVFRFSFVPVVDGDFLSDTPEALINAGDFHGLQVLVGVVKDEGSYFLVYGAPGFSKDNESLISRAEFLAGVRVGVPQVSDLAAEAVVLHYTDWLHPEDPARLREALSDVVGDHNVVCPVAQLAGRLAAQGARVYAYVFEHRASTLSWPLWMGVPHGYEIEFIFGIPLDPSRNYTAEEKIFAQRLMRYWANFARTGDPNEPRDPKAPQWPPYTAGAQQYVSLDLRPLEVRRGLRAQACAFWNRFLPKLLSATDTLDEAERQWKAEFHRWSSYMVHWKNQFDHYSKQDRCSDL
Sorting guide: entries reporting IC50 beneath 3 µM go in the label 1 pile, the rest go in the label 0 pile.

Ask: State whether 3 µM exceeds IC50 recorded for CN[C@@H](C)[C@H]1[C@H](O)C[C@@]2(C)[C@@H]3CC[C@@H]4C(=CC[C@@H]5N=C(C(C)C)OC[C@]54C)C[C@H]3C(=O)C[C@]12C .
Result: label 1

Ask: Queued: C[C@@H]([C@H]1[C@H](O)C[C@@]2(C)[C@@H]3CC[C@@H]4C(=CC[C@@H]5N=C(C(C)(C)C)OC[C@]54C)C[C@H]3C(=O)C[C@]12C)N(C)C
Result: label 1

Ask: Queued: CC[C@H](C)C1=N[C@H]2CC=C3C[C@H]4C(=O)C[C@]5(C)[C@@H]([C@H](C)N(C)C)[C@H](O)C[C@@]5(C)[C@@H]4CC[C@H]3[C@]2(C)CN1
Result: label 0

Continuing:
Ask: Please indicate whether the reported IC50 of CC(C)C1=N[C@H]2CC[C@]34C[C@]35C(=O)C[C@]3(C)[C@@H]([C@H](C)N(C)C)[C@H](O)C[C@@]3(C)[C@@H]5CC[C@H]4[C@]2(C)CN1 is strictly below 3 µM.
Result: label 0

Ask: How about this molecule: CC1=N[C@H]2CC=C3C[C@H]4C(=O)C[C@]5(C)[C@@H]([C@H](C)N(C)C)[C@H](O)C[C@@]5(C)[C@@H]4CC[C@H]3[C@]2(C)CO1
Result: label 0

###

# Assay target: Acetylcholinesterase (Bos taurus)
# Sequence (P23795 whole entry): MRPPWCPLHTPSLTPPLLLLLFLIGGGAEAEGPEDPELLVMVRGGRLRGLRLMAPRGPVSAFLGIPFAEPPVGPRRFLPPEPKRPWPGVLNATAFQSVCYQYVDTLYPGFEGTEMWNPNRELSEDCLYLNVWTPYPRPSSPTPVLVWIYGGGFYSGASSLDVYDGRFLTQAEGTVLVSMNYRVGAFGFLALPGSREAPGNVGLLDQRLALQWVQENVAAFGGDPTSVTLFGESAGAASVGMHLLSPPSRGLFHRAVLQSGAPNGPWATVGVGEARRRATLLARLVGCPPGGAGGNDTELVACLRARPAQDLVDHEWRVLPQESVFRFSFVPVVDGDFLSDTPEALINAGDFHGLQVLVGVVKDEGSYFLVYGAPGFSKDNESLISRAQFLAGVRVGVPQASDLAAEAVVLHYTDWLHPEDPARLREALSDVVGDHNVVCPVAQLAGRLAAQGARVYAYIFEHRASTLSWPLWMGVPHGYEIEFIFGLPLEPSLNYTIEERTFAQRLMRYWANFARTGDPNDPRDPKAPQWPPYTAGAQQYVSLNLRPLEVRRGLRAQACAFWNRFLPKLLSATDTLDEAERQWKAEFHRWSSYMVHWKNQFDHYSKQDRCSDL
Measurement type: pIC50
Would you please state pIC50, meaning minus log10 of the concentration in mol/L, as a bare number?

Ask: Which pIC50 is listed for C[C@@H]([C@H]1[C@H](O)C[C@@]2(C)[C@@H]3CC[C@@H]4C(=CC[C@@H]5N=C(C(C)(C)C)OC[C@]54C)C[C@H]3C(=O)C[C@]12C)N(C)C ?
Result: 5.93

Ask: Try this molecule too: CC[C@H](C)C1=N[C@H]2CC=C3C[C@H]4C(=O)C[C@]5(C)[C@@H]([C@H](C)N(C)C)[C@H](O)C[C@@]5(C)[C@@H]4CC[C@H]3[C@]2(C)CO1
Result: 5.87

Ask: Also check CC1=N[C@H]2CC=C3C[C@H]4C(=O)C[C@]5(C)[C@@H]([C@H](C)N(C)C)[C@H](O)C[C@@]5(C)[C@@H]4CC[C@H]3[C@]2(C)CO1
Result: 5.21

Ask: Try CC(C)C1=N[C@H]2CC[C@]34C[C@]35C(=O)C[C@]3(C)[C@@H]([C@H](C)N(C)C)[C@H](O)C[C@@]3(C)[C@@H]5CC[C@H]4[C@]2(C)CN1 next.
Result: 5.48

Ask: Next molecule up: CC[C@H](C)C1=N[C@H]2CC[C@]34C[C@]35C(=O)C[C@]3(C)[C@@H]([C@H](C)N(C)C)[C@H](O)C[C@@]3(C)[C@@H]5CC[C@H]4[C@]2(C)CN1
Result: 5.19
